Cited source for all entries: ChEMBL document CHEMBL1148671

System: Streptococcus pneumoniae
method.description: Antibacterial activity against Streptococcus pneumoniae 280-962 by broth microdilution method
Format: functional
Reported MIC values are given for each entry in this list.

# smiles.notation, target.desc, assay.metric, measured
data = [
    ("CC[C@H]1OC(=O)[C@H](C)C(=O)[C@H](C)[C@@H](O[C@@H]2O[C@H](C)C[C@H](N(C)C)[C@H]2O)[C@](C)(OC)C[C@@H](C)C(=O)[C@H](C)[C@@H]2[C@@H]1OC(=O)N2CCCCc1cnc2ccccc2c1", "Streptococcus pneumoniae", "MIC", "≤ 0.05 µg/mL"),
    ("CC[C@H]1OC(=O)[C@H](C)C(=O)[C@H](C)[C@@H](O[C@@H]2O[C@H](C)C[C@H](N(C)C)[C@H]2O)[C@](C)(OC)C[C@@H](C)C(=O)[C@H](C)[C@@H]2[C@@H]1OC(=O)N2CCCCn1cnc(-c2ccc(C)nc2)c1", "Streptococcus pneumoniae", "MIC", "≤ 0.05 µg/mL"),
    ("CC[C@H]1OC(=O)[C@H](C)C(=O)[C@H](C)[C@@H](O[C@@H]2O[C@H](C)C[C@H](N(C)C)[C@H]2O)[C@](C)(OC)C[C@@H](C)C(=O)[C@H](C)[C@@H]2[C@@H]1OC(=O)N2CCCCn1ccc2ncccc21", "Streptococcus pneumoniae", "MIC", "≤ 0.05 µg/mL"),
    ("CC[C@H]1OC(=O)[C@H](C)C(=O)[C@H](C)[C@@H](O[C@@H]2O[C@H](C)C[C@H](N(C)C)[C@H]2O)[C@](C)(OC)C[C@@H](C)C(=O)[C@H](C)[C@@H]2[C@@H]1OC(=O)N2CCCCc1ncc(-c2ccccc2)s1", "Streptococcus pneumoniae", "MIC", "≤ 0.05 µg/mL"),
    ("CC[C@H]1OC(=O)[C@H](C)C(=O)[C@H](C)[C@@H](O[C@@H]2O[C@H](C)C[C@H](N(C)C)[C@H]2O)[C@](C)(OC)C[C@@H](C)C(=O)[C@H](C)[C@@H]2[C@@H]1OC(=O)N2CCCCc1ccc(-c2cncnc2)s1", "Streptococcus pneumoniae", "MIC", "≤ 0.05 µg/mL"),
]

Q: Quick one: MIC of CC[C@H]1OC(=O)[C@H](C)C(=O)[C@H](C)[C@@H](O[C@@H]2O[C@H](C)C[C@H](N(C)C)[C@H]2O)[C@](C)(OC)C[C@@H](C)C(=O)[C@H](C)[C@@H]2[C@@H]1OC(=O)N2CCCCc1ccnc2ccccc12 ?
A: ≤ 0.05 µg/mL

Q: Quick one: MIC of CC[C@H]1OC(=O)[C@H](C)C(=O)[C@H](C)[C@@H](O[C@@H]2O[C@H](C)C[C@H](N(C)C)[C@H]2O)[C@](C)(OC)C[C@@H](C)C(=O)[C@H](C)[C@@H]2[C@@H]1OC(=O)N2CCCCc1ncc(-c2cccc(N)c2)s1 ?
A: ≤ 0.05 µg/mL

Q: Quick one: MIC of CC[C@H]1OC(=O)[C@H](C)C(=O)[C@H](C)[C@@H](O[C@@H]2O[C@H](C)C[C@H](N(C)C)[C@H]2O)[C@](C)(OC)C[C@@H](C)C(=O)[C@H](C)[C@@H]2[C@@H]1OC(=O)N2CCCCn1ccc2ccccc21 ?
A: ≤ 0.05 µg/mL
